Target: RAC-alpha serine/threonine-protein kinase (Homo sapiens)
Experiment: Inhibition of Akt after 1 hr by fluorescence polarization assay
Documented IC50 across a set of substances
Value expressed in µM; do not type the unit.

Recorded results for 2 substances are shown here.
>>> print(df.to_string())
        substance  numeric_result
0  Ac-GRPRTTAF-OH             409
1  Ac-GRPRTTVF-OH             445

Recorded IC50 (substance Ac-GRPRTTCF-OH ): 241

====

Documented IC50 across a set of molecules
Biological target: RAC-alpha serine/threonine-protein kinase (Homo sapiens, UniProt P31749)
Sequence (P31749 whole entry): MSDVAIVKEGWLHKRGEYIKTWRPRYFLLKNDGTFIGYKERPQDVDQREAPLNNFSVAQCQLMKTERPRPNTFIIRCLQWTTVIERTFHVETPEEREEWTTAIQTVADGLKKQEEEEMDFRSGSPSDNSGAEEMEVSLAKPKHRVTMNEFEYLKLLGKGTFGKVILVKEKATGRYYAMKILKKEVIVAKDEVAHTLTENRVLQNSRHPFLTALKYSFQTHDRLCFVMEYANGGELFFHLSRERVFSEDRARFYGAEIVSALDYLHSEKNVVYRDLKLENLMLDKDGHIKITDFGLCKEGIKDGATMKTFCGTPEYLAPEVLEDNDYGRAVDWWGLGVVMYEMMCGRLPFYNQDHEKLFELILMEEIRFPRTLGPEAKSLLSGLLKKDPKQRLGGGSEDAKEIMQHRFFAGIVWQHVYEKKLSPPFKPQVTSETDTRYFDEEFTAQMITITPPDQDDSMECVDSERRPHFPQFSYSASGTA
Starred links: 1 amine or outer side, 2 acyl side, 3 side chain; linkers in the order of their positions; H or OH if unused. Non-standard residues stand in square brackets, D forms with d. Residues, ends and D or L forms follow the SMILES beside them. *: point of attachment. X2 = c1ccc2cc(CCN*)ccc2c1; 4Abz = Nc1ccc(C(=O)O)cc1; X3 = CCCCCc1ccc(CN*)cc1; CO = O=C([*:1])[*:2]; NHBn = c1ccc(CN*)cc1; NHHex = CCCCCCN*

Recorded results for 4 molecules are shown here.
molecule	result
CC(=O)NCC(=O)N[C@@H](CCCN=C(N)N)C(=O)N1CCC[C@H]1C(=O)N[C@@H](C)C(=O)Nc1ccc(C(=O)N[C@H](C(=O)N[C@@H](Cc2ccccc2)C(=O)NCc2ccccc2)C(C)C)cc1 (Ac-GRPA[4Abz]VF-NHBn)	79 µM
CC(C)[C@H](NC(=O)c1ccc(N(CC(=O)NCc2ccccc2)C(=O)CCCCNC(=N)N)cc1)C(=O)N[C@@H](Cc1ccccc1)C(=O)NCc1ccccc1	14 µM
CC(=O)N[C@@H](CCCN=C(N)N)C(=O)Nc1ccc(C(=O)N[C@H](C(=O)N[C@@H](Cc2ccccc2)C(=O)NCc2ccccc2)C(C)C)cc1 (Ac-R[4Abz]VF-NHBn)	119 µM
CCCCCc1ccc(CNC(=O)[C@H](Cc2ccccc2)NC(=O)[C@@H](NC(=O)c2ccc(NC(=O)[C@H](CCCN=C(N)N)NC(=O)[C@@H]3CCCN3C(=O)[C@H](CCCN=C(N)N)NC(=O)CNC(C)=O)cc2)C(C)C)cc1 (Ac-GRPR[4Abz]VF-X3)	96 µM

Recorded IC50 (molecule CC(C)[C@H](NC(=O)c1ccc(NC(=O)CCCCNC(=N)N)cc1)C(=O)N[C@@H](Cc1ccccc1)C(=O)NCc1ccccc1 ): 193 µM

Recorded IC50 (molecule CC(=O)NCC(=O)N[C@@H](C)C(=O)N1CCC[C@H]1C(=O)N[C@@H](C)C(=O)Nc1ccc(C(=O)N[C@H](C(=O)N[C@@H](Cc2ccccc2)C(=O)NCc2ccccc2)C(C)C)cc1 (Ac-GAPA[4Abz]VF-NHBn) ): > 500 µM

Recorded IC50 (molecule CC(=O)NCC(=O)N[C@@H](CCCN=C(N)N)C(=O)N1CCC[C@H]1C(=O)N[C@@H](CCCN=C(N)N)C(=O)Nc1ccc(C(=O)N[C@H](C(=O)N[C@@H](Cc2ccccc2)C(=O)NCCc2ccc3ccccc3c2)C(C)C)cc1 (Ac-GRPR[4Abz]VF-X2) ): 36 µM

Recorded IC50 (molecule CC(C)[C@H](NC(=O)c1ccc(NCCNC(=N)N)cc1)C(=O)N[C@@H](Cc1ccccc1)C(=O)NCc1ccccc1 ): 390 µM

Recorded IC50 (molecule C[C@@H](O)[C@H](NC(=O)[C@H](CCCNC(=N)N)NC(=O)[C@@H]1CCCN1C(=O)[C@H](CCCNC(=N)N)NC(=O)CNC(=O)O)C(=O)N[C@H](C(=O)N[C@@H](CC(N)=O)C(=O)N[C@@H](Cc1ccccc1)C(=O)O)[C@@H](C)O ({CO}-GRPRTTNF-OH) ): 229 µM

Recorded IC50 (molecule CC(=O)N[C@@H](CCCNC(=N)N)C(=O)Nc1ccc(C(=O)N[C@H](C(=O)N[C@@H](Cc2ccccc2)C(=O)NCCc2cccc3ccccc23)C(C)C)cc1 ): 89 µM

Recorded IC50 (molecule CCCCCCNC(=O)[C@H](Cc1ccccc1)NC(=O)[C@@H](NC(=O)c1ccc(NC(=O)[C@H](CCCN=C(N)N)NC(=O)[C@@H]2CCCN2C(=O)[C@H](CCCN=C(N)N)NC(=O)CNC(C)=O)cc1)C(C)C (Ac-GRPR[4Abz]VF-NHHex) ): 52 µM
